target: SARS-CoV-2 wild type spike protein (on reporter virus particles) (SARS-CoV-2, UniProt P0DTC2 14-1273); assay: cell-based or functional assay
endpoint: PSV IC50

Sample records with PSV IC50:
{"columns": ["binder", "assayValue"],
 "data": [
  ["A-1 (antibody, V domains shown) VH: EVQLVESGGGVVQPGGSLRLSCAASGFAFSTYWMHWVRQAPGKGLVWVSRINGDGSGTNYADSVKGRFTISRDNAKSTLYLQMNSLRTEDTAVYYCTRTAGRGAYDFGRFDPWGQGTLVTVSS VL: DIVLTQTPLSLPVTPGEPASISCRSSQSLLHSNGYNYLDWYLQKAGQSPQLLVFLGSNRASGVPDRFSGSASGTDFTLKISRVEAEDVGVYYCMQALQIPITFGQGTRLEIK", "0.017 µg/mL"],
  ["A-11 (antibody, V domains shown) VH: EVQLVESGAEVKKPGSSVMVSCKASGGTFSRYAISWVRQAPGQGLEWMGGIIPVFGIVHYAQKFQGRVTITADKSTSTAYMELSSLRSEDTAAYYCARDRQQQPSPYYYHGMDVWGQGTTVTVSS VL: DIRLTQSPSSLSASVGDRVTITCQASQDISNYLNWYQQKPGKAPKLLIYDASNLETGVPTRFSGSGSGTDFTFTISSLQPEDIATYYCQQYDNLPLFGGGTKVEIK", "0.092 µg/mL"]
]}

Next binder, please.
Ask: What value of measured PSV IC50 is listed for A-16 (antibody, V domains shown) VH: QVQLVESGGGLVQPGRSLRLSCAASGFTFDDYAMHWVRQAPGKGLEWVSGISWNSGTIGYADSVKGRFIISRDNAKNSLYLQMNSLRGEDMALYYCGKDRKREDPSLGGMDVWGQGTTVTVSS VL: SYELTQPPSVSVAPGQTARITCGGNNIGSKSVHWYQQKPGQAPVLVVYDDTDRPSGIPERFSGSNSGNTATLTISRVEAGDEADYYCQVWDSSSDHYVFGTGTKLTVL ?
Reply: 0.186 µg/mL
